Source of measurements: patent US20130129753A1

- assayed target: T1, IL-13Rα2 receptor (human, UniProt Q14627 27-380)
- T1 sequence (looked up): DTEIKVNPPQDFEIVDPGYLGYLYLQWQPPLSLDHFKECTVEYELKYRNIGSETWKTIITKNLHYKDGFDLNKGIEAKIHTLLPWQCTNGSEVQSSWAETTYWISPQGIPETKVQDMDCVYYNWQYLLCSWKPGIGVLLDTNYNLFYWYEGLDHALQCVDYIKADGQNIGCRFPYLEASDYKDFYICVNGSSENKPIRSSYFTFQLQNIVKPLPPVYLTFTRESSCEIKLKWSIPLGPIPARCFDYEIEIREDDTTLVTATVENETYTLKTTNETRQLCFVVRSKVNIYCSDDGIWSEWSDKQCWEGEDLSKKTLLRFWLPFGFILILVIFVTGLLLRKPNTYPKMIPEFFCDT
- test details: cell-based or functional assay
test readout: IC50 (ng Ab/mL), viability of PC3MM2 cells
Kindly provide the numeric value in ng Ab/mL only, without the unit symbol.

# count of solved cases: 4
binder	recorded number
IL13Ra2-AB08-v1010-hG1-(C)_Mal(H2O)Peg6C2-0#118 (antibody, V domains shown, drug-linker Mal(H2O)Peg6C2-0#118 on cysteine (C), positions not given; drug-linker Mal(H2O)Peg6C2-0#118 on cysteine (C), positions not given; DAR 2.9 per antibody) VH: EVQLVESGGGLVQPGGSLRLSCAASGFTFSRNGMSWVRQAPGKGLEWVATVSSGGSYIYYADSVKGRFTISRDNAKNSLYLQMNSLRAEDTAVYYCARQGTTALATRFFDVWGQGTLVTVSS VL: DIQMTQSPSSLSASVGDRVTITCKASQDVGTAVAWYQQKPGKAPKLLIYSASYRSTGVPSRFSGSGSGTDFTLTISSLQPEDFATYYCQHHYSAPWTFGGGTKVEIKT	2.9
IL13Ra2-AB08-v1010-hG1-(C)_MalPeg6C2-#117 (antibody, V domains shown, drug-linker MalPeg6C2-#117 on cysteine (C), positions not given; drug-linker MalPeg6C2-#117 on cysteine (C), positions not given; DAR 3.3 per antibody) VH: EVQLVESGGGLVQPGGSLRLSCAASGFTFSRNGMSWVRQAPGKGLEWVATVSSGGSYIYYADSVKGRFTISRDNAKNSLYLQMNSLRAEDTAVYYCARQGTTALATRFFDVWGQGTLVTVSS VL: DIQMTQSPSSLSASVGDRVTITCKASQDVGTAVAWYQQKPGKAPKLLIYSASYRSTGVPSRFSGSGSGTDFTLTISSLQPEDFATYYCQHHYSAPWTFGGGTKVEIKT	3.5
IL13Ra2-AB08-v1010-hG1-(C)_mc-0#118 (antibody, V domains shown, drug-linker mc-0#118 on cysteine (C), positions not given; drug-linker mc-0#118 on cysteine (C), positions not given; DAR 3.2 per antibody) VH: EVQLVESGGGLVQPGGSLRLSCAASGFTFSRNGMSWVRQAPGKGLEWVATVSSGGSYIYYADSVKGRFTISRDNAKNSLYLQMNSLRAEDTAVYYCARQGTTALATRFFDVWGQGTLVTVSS VL: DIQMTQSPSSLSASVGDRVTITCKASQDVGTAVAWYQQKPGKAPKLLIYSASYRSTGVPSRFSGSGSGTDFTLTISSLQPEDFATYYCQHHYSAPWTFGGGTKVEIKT	1.3
IL13Ra2-AB08-v1010-hG1-(C)_mcValCitPABC-#112 (antibody, V domains shown, drug-linker mcValCitPABC-#112 on cysteine (C), positions not given; drug-linker mcValCitPABC-#112 on cysteine (C), positions not given; DAR 4 per antibody) VH: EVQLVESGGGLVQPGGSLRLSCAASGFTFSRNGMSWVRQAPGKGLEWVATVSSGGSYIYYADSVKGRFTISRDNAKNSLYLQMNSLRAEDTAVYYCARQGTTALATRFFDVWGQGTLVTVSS VL: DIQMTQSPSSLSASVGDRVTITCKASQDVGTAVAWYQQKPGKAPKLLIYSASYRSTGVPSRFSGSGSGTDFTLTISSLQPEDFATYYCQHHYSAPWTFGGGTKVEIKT	1.2

We next turn to a different binder, shown below.
Data point: IL13Ra2-AB08-v1010-hG1-(C)_mc-#117 (antibody, V domains shown, drug-linker mc-#117 on cysteine (C), positions not given; drug-linker mc-#117 on cysteine (C), positions not given; DAR 3.3 per antibody) VH: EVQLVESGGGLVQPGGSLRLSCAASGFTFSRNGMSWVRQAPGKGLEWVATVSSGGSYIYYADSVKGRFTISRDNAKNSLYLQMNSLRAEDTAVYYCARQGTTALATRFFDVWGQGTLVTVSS VL: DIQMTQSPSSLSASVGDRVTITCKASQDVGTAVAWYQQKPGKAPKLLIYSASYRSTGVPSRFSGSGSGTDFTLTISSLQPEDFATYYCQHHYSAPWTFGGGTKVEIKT ; IC50 (ng Ab/mL), viability of PC3MM2 cells = 1.1
